Reported activity change, negative = inhibition values follow for various compounds
Assay: qHTS Assay for inhibitors of the human cytomegalovirus (HCMV); also: % is scaled to controls: 0 for no effect and ±100 for the full control effect
Conditions: HFF cells, HCMV-luciferase reporter, 72 h; at 57.5 µM; hits give low values
In all, about 410,000 compounds went through this assay and about 18,000 (4.4%) were called active. Inconclusive results (about 7%) are left out. The list comes from a sample in which actives are over-represented; it also holds close analogues and randomly drawn compounds.
Enter your answer as a number in %; do not include the unit.

Solved cases (4 shown):
1) CCC(=O)N1CCc2cc(CNC(=O)Nc3ccccc3Cl)ccc21 ... 38.6
2) COc1ccc(N2CCN(C(=S)Nc3ccc(S(N)(=O)=O)cc3)CC2)cc1 ... 9.64
3) COc1ccc(NC(=S)NCC2CCN(c3ccc(OC)cc3)C2)cc1 (stereo not drawn) ... -63.2
4) Cn1cccc1Cc1nnc(SCC(=O)NCc2ccc3c(c2)OCO3)n1CCc1ccccc1 ... -7.07

We next turn to a different compound, shown below.
Identify activity change, negative = inhibition associated with the compound COc1ccc(/C=N/OCc2ccccc2C#N)c(OC)c1
50.3

src = PubChem BioAssay AID1259415
